# Test system: NCI-H522
# assay overview: NCI tumour cell line growth inhibition, 48 h
Calls of active or inactive are those of the source. No stated cut-off is given here; in the data, active = GI50 up to about 1.1 µM and inactive = higher.
Recorded GI50 values for a group of molecules are listed next.

molecule	GI50
CSCCCNC(=O)c1csc(-c2csc(CCNC(=O)CNC(=O)CNC(=O)OC(C)(C)C)n2)n1	> 100 µM (inactive)
CS(=O)(=O)N(CCC#N)c1ccc(/C=C2\N=C(c3ccccc3Cl)OC2=O)cc1	> 100 µM (inactive)
COc1ccc(N2C(=O)C(=O)C3(CCCCC3)C2=O)c2ccccc12	> 10 µM (inactive)
CCN(CC)c1ccc(C(=C2C=CC(=[N+](CC)CC)C=C2)c2ccccc2)cc1	0.0177 µM (active)
C/C(CCOC1CCCCO1)=C(\C)[Si](C)(C)C (stereo not given)	> 100 µM (inactive)
N#C/C(c1nc2ccccc2[nH]1)=c1\s/c(=C/c2ccc(Cl)cc2)c(=O)n1-c1ccccc1	> 100 µM (inactive)
O=C(O)C1=CN(c2ccncc2)C(c2ccco2)=CC1c1ccccc1[N+](=O)[O-] (stereo not given)	3.22 µM (inactive)
O=[N+]([O-])c1cccc(C2=NN(c3ccccc3)C[N+](c3ccc(Br)cc3)=N2)c1	77.1 µM (inactive)
Cc1ccc(O)c(-c2cc(-c3cccc(Cl)c3)c(C#N)c(N)n2)c1	12.5 µM (inactive)
CCOC(=O)CC[C@H](NC(=O)c1nc[nH]c1[N+](=O)[O-])C(=O)OCC	> 100 µM (inactive)
